# targetEntity: Glycogen synthase kinase-3 beta (Homo sapiens, UniProt P49841)
# Sequence (P49841 whole entry): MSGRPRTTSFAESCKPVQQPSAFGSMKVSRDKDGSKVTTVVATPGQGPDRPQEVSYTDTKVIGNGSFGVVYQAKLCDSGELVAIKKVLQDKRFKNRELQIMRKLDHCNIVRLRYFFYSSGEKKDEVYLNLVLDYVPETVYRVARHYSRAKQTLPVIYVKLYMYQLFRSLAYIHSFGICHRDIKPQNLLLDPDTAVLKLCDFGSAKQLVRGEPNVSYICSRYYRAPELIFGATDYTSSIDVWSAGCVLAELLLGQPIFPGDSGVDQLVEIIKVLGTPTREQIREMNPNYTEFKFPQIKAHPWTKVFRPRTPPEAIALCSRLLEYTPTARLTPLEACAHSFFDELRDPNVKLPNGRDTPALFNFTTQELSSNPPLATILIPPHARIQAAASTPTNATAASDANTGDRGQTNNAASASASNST
# testDetails: TR-FRET Assay
pIC50: −log10 of the molar value.
reportedMetric: pIC50

As a guide, the following entries are already answered.
[
  {
    "molecule": "CC[C@@]1(c2cccc([C@@H]3CCOC3)c2)C2=CN=NC2NC2=C1C(=O)CC(C)(C)C2 (stereo partly drawn)",
    "pIC50": "5.30 to 6.00"
  },
  {
    "molecule": "CCC1(c2cccc(Cc3ncccn3)c2)C2=CN=NC2NC2=C1C(=O)NC(C)(C)C2 (stereo not drawn)",
    "pIC50": "5.30 to 6.00"
  }
]

Item CC[C@]1(c2cccc(N3CCCCC3)c2)C2=C(CC(C)(C)CC2=O)NC2N=NC(C)=C21 (stereo partly drawn) with Glycogen synthase kinase-3 beta (Homo sapiens, UniProt P49841) - pIC50?
6.00 to 7.00

Item CC[C@]1(c2cccc(N(C)c3ccnc(OC)c3)c2)C2=CN=NC2NC2=C1C(=O)CC(C)(C)C2 (stereo partly drawn) with Glycogen synthase kinase-3 beta (Homo sapiens, UniProt P49841) - pIC50?
6.00 to 7.00
